Reported max activation values for a set of compounds
# study_system: Nuclear receptor subfamily 1 group I member 2 (Rattus norvegicus)
# assay_info: Rat pregnane X receptor (rPXR) activation by small molecules, qHTS assay (AID 1346983); also: % is scaled to controls: 0 for no effect and ±100 for the full control effect; nearly all actives have a fitted effect of over 20% in size
# measurement_context: rPXR luciferase reporter cells, One-Glo luminescence, 24 h; hits give high values
Inconclusive results are not listed.
measurement_label: max activation (%)

>>> measured_number("CC(=O)OCC(COC(C)=O)OC(C)=O")
3.67
>>> measured_number("Cc1ccccc1C(OCCN(C)C)c1ccccc1 (centres undefined)")
-0.826
>>> measured_number("CC(O)CO (centres undefined)")
1.42
>>> measured_number("O=C(O)CCCCC(=O)O")
-1.24
>>> measured_number("CC(C)(Oc1ccc(C2CC2(Cl)Cl)cc1)C(=O)O (centres undefined)")
-3.49
>>> measured_number("O=c1cc[nH]c(=S)[nH]1")
-8.7
>>> measured_number("Cc1cc(=O)[nH]c(=S)[nH]1")
-8.17
>>> measured_number("OC(Cn1cncn1)(Cn1cncn1)c1ccc(F)cc1F")
-1.17
>>> measured_number("Cn1cc[nH]c1=S")
-0.0972
